- Tested on: MT4
- procedure-text: Inhibition of HIV-1 induced cytopathicity against MT-4 cell
- Format: functional, cell-based
- experimental-setup: Homo sapiens
property: EC50

// fetch EC50 given entry COC(=O)C(C)NP(=O)(OCC1OC(n2cc(C)c(=O)n(CCCCCCBr)c2=O)CC1N=[N+]=[N-])Oc1ccccc1 (stereo unspecified)
> 10000 nM

// fetch EC50 given entry COC(=O)C(C)NP(=O)(OC[C@@H]1O[C@H](n2cc(C)c(=O)n(CCCn3c(=O)c(C)cn([C@@H]4O[C@H](CO[Si](C)(C)C(C)(C)C)[C@@]5(OS(=O)(=O)C=C5N)[C@H]4O[Si](C)(C)C(C)(C)C)c3=O)c2=O)C[C@H]1O)Oc1ccccc1 (stereo partly specified)
330 nM

// fetch EC50 given entry Cc1cn([C@@H]2O[C@H](CO[Si](C)(C)C(C)(C)C)[C@@]3(OS(=O)(=O)C=C3N)[C@H]2O[Si](C)(C)C(C)(C)C)c(=O)n(CC#Cc2cn([C@@H]3C[C@@H](N=[N+]=[N-])[C@H](CO)O3)c(=O)[nH]c2=O)c1=O
330 nM

// fetch EC50 given entry Cc1cn([C@@H]2O[C@H](CO[Si](C)(C)C(C)(C)C)[C@@]3(OS(=O)(=O)C=C3N)[C@H]2O[Si](C)(C)C(C)(C)C)c(=O)n(CCCn2c(=O)c(C)cn([C@H]3C[C@H](N=[N+]=[N-])[C@@H](CO)O3)c2=O)c1=O
380 nM

// fetch EC50 given entry Cc1cn([C@@H]2C[C@@H](N=[N+]=[N-])[C@H](CO)O2)c(=O)n(C/C=C/Cn2c(=O)c(C)cn([C@@H]3O[C@H](CO[Si](C)(C)C(C)(C)C)[C@@]4(OS(=O)(=O)C=C4N)[C@H]3O[Si](C)(C)C(C)(C)C)c2=O)c1=O
700 nM

// fetch EC50 given entry COC(=O)C(C)NP(=O)(OCC1OC(n2cc(C)c(=O)n(CCCBr)c2=O)CC1N=[N+]=[N-])Oc1ccccc1 (stereo unspecified)
> 50000 nM
